The following molecules are listed with their measured TGI values.
# Tested on: NCI-H460 lung
# measurement-protocol: NCI tumour cell line growth inhibition, 48 h

Some solved cases for reference:
> print(dat)
                                   molecule  test.readout    result
1  S=c1[nH]nc(CNc2ccc(-c3n[nH]c(=S)n3-c3ccc(Cl)cc3)cc2)n1-c1ccc(Cl)cc1           TGI  > 100 µM
2  CC(C)(Br)C(=O)N1CCN(C(c2ccccc2)c2ccccc2)CC1           TGI  > 100 µM
3  O=C1NC(=O)C(F)(n2cc(F)c(=O)[nH]c2=O)C(O)N1 (stereo unspecified)           TGI   > 10 µM
4                    CC(C)(O)/C=C\P(=O)(O)O           TGI  > 100 µM
5          CCOC(=O)c1ccc(NC(=O)Nc2nncs2)cc1           TGI   14.1 µM

Input: What does the data say about its TGI? Entry: CCOc1cc(C2SCC(=O)N2c2ccc(Oc3ccc(Cl)cc3)c(Cl)c2)ccc1O (stereo unspecified)
Output: 39.1 µM

Input: What does the data say about its TGI? Entry: `O=P12N(CCN1c1ccccc1)CCN2c1ccccc1`
Output: > 100 µM

Input: What does the data say about its TGI? Entry: CC(N)C(Cc1ccc(Cl)cc1)c1ccc(Cl)cc1 (stereo unspecified)
Output: 18.5 µM

Input: What does the data say about its TGI? Entry: O=C1NC(Cc2ccc(O)cc2)C(=O)N2CCCC12 (stereo unspecified)
Output: > 100 µM

Input: What does the data say about its TGI? Entry: `CCOC(=O)C(/C(=N/S(=O)(=O)c1cc(C)c(Cl)cc1[S-])[n+]1ccc(N(C)C)cc1)=C(/O)c1ccc([N+](=O)[O-])cc1`
Output: > 100 µM
